# protocol-description: MTT cell viability of HK-2 cells exposed to iodinated radiocontrast media, with or without rhEpo
# Assay type: cell-based, human
# condition-description: human, HK-2 cells (proximal tubular cell line); HK-2 cells, 100 mg iodine/mL contrast media, 6-hour incubation; read-out: reduction of cell viability (MTT)
cytotoxicity at 6 h, 100 mg iodine/mL: recorded values
Form entry: value (%) — number only.

Reference set (2 entries):
CC(=O)Nc1c(I)c(NC(C)=O)c(I)c(C(=O)O)c1I [diatrizoate]; 99
CC(=O)N(CC(O)CN(C(C)=O)c1c(I)c(C(=O)NCC(O)CO)c(I)c(C(=O)NCC(O)CO)c1I)c1c(I)c(C(=O)NCC(O)CO)c(I)c(C(=O)NCC(O)CO)c1I (stereo not drawn); 48

Read the next record carefully.
Look at this compound and give its reported cytotoxicity at 6 h, 100 mg iodine/mL. CC(=O)N(CC(O)CO)c1c(I)c(C(=O)NCC(O)CO)c(I)c(C(=O)NCC(O)CO)c1I (stereo not drawn) [iohexol]
60
